Entry source: paper PMC3836906

# test: in vivo
# assay_conditions: CD2F1, mouse, plasma, iv, 20 mg/kg, Half-life, BEN 20 mg/kg iv alone

- smiles: "Cc1cc(N(CCO)CCO)ccc1C(=O)O"
  half-life: "29 min"
